# Test system: Rat Paw Edema
# Measurement description: Rat paw edema assay (carrageenan-induced)
# Format: in vivo, Male Sprague-Dawley rats
# Condition label: dose of prodrug, po, required to reduce edema formation by 50% as compared to the vehicle control
Test readout: ED50 (mg/kg)
Please give a number only; it is taken to be in mg/kg.

Recorded ED50 (compound CC1(C)OC(O)C(c2cccc(F)c2)=C1c1ccc(S(C)(=O)=O)cc1 (stereo not drawn) ): 2.5

Recorded ED50 (compound CC1(C)OC(O)C(c2cc(F)cc(F)c2)=C1c1ccc(S(C)(=O)=O)cc1 (stereo not drawn) ): 0.7

Recorded ED50 (compound CC(OC1=C(c2ccc(S(C)(=O)=O)cc2)C(C)(C)OC1O)C1CC1 (stereo not drawn) ): 1.6

Values from patent EP0904269B1
